measurement_target: Human Cav2.2 channels (Homo sapiens, UniProt Q00975)
Construct: expressed in transfected cells
Sequence (Q00975 whole entry): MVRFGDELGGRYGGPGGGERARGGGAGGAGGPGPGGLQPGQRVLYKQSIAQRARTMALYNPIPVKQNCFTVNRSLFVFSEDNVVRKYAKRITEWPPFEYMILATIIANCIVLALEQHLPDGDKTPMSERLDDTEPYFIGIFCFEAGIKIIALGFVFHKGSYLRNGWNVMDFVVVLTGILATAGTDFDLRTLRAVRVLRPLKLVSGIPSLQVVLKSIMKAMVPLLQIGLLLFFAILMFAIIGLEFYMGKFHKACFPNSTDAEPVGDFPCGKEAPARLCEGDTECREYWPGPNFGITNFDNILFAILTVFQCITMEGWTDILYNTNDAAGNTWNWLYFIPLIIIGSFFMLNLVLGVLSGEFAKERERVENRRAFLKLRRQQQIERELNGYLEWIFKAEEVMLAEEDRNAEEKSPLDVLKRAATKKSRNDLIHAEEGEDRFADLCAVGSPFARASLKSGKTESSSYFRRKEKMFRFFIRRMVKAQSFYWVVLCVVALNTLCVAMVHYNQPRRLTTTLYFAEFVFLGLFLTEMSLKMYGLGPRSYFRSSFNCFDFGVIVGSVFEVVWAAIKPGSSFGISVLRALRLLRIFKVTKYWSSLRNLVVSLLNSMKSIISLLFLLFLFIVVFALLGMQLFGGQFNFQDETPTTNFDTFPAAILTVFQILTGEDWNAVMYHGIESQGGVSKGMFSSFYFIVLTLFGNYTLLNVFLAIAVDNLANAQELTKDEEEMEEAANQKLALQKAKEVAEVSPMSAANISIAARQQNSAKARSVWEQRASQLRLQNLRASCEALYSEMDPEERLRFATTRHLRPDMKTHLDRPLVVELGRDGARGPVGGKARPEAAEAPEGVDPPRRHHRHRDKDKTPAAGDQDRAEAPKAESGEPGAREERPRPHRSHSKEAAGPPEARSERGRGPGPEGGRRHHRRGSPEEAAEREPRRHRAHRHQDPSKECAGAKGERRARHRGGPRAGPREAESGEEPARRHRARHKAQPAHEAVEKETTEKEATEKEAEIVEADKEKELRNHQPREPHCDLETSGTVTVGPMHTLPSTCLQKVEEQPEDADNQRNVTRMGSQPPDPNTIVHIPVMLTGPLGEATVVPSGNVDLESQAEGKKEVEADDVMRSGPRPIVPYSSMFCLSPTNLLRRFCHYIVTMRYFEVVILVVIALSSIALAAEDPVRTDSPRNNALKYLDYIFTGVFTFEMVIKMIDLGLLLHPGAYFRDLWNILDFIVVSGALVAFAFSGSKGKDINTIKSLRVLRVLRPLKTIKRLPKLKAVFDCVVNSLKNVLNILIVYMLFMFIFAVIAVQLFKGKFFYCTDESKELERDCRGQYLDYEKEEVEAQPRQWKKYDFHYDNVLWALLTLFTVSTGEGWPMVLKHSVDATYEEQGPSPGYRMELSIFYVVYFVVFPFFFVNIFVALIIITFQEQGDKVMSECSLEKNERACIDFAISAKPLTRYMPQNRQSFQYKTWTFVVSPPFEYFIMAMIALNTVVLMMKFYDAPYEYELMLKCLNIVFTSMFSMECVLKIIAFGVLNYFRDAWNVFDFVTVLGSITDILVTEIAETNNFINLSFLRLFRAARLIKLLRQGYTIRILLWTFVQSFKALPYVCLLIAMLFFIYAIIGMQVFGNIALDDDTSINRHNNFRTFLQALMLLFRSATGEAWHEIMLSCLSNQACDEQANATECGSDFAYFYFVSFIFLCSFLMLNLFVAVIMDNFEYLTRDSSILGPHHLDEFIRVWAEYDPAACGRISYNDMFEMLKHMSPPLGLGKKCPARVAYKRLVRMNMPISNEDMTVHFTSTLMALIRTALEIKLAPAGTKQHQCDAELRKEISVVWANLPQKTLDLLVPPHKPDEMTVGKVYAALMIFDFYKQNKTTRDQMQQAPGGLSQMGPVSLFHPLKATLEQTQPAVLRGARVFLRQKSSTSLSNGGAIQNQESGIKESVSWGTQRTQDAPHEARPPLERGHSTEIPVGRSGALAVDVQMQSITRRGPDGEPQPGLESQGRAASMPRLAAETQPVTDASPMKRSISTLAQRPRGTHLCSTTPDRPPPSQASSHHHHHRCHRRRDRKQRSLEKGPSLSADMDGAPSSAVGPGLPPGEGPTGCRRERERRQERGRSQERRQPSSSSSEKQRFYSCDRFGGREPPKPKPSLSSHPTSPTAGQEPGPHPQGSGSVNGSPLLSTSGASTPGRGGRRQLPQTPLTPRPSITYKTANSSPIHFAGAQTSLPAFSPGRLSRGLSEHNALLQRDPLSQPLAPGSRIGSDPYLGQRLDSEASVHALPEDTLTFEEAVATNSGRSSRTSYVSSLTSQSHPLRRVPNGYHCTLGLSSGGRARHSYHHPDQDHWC
Sequence (P54289 25-1103 partner): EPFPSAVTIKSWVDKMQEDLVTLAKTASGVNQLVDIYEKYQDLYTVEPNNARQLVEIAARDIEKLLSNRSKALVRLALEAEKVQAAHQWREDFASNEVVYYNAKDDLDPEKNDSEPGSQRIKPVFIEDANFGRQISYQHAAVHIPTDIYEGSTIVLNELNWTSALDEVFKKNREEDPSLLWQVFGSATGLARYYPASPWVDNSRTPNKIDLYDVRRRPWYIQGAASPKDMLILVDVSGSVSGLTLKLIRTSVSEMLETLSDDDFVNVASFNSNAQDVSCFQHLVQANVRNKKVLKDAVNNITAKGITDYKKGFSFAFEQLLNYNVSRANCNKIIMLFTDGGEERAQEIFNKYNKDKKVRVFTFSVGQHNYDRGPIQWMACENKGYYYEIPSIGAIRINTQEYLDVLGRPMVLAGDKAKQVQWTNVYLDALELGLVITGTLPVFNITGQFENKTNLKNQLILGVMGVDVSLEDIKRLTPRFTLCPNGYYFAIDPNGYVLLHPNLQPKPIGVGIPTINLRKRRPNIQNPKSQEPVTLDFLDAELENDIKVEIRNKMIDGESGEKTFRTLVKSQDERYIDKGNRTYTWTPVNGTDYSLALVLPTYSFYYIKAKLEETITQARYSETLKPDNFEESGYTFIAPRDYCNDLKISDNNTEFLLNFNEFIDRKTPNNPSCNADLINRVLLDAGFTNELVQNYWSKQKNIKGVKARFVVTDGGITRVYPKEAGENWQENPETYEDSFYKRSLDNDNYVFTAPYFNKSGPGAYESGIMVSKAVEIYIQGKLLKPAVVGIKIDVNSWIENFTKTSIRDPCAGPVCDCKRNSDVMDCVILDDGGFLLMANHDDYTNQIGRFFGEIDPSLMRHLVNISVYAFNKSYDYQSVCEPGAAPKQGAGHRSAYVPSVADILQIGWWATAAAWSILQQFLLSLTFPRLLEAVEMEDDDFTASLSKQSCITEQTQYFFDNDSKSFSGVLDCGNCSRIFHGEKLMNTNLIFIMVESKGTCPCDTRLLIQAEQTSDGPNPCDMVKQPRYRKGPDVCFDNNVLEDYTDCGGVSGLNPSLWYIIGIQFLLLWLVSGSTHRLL
Sequence (P54284 whole entry partner): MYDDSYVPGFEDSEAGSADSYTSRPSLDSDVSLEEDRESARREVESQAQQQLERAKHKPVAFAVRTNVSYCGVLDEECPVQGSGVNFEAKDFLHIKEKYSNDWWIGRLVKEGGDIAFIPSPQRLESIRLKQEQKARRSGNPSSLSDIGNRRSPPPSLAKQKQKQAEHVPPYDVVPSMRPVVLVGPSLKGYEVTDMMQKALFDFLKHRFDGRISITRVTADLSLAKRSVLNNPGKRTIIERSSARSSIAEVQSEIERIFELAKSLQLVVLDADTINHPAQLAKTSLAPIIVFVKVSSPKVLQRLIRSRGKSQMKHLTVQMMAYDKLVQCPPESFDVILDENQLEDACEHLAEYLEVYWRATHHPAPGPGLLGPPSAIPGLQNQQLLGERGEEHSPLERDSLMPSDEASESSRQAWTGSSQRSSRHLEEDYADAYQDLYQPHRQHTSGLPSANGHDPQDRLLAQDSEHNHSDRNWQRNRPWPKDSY
test_protocol: Fluorescent assay for Cav2.2 channels using potassium depolarization to initiate channel opening
Format: cell-based
condition_notes: 10 μM compound; read-out: Cav 2.2 Activity % Inh at 10 μM
Method: Human Cav2.2 channels were stably expressed in HEK293 cells along with alpha2-delta and beta subunits of voltage-gated calcium channels. […] Calcium influx through Cav2.2 channels is determined using a calcium sensitive fluorescent dye in combination with a fluorescent plate reader. Fluorescent changes were measured with either a VIPR (Aurora Instruments) or FLIPR (Molecular Devices) plate reader. • 1. […] Read cell plate on VIPR instrument, Excitation=480 nm, Emission=535 nm • 9. […]
property: inhibition at 10 µM (%)

{"columns": ["smiles_record", "inhibition at 10 µM, %"],
 "data": [
  ["CC(C)(C)c1cc(C(=O)NC2(C(=O)NCc3ccc(CN4CCOCC4)cc3)CCOCC2)cc(C(C)(C)C)n1", 79.2],
  ["CNC(=O)C1(NC(=O)c2cc(C(C)(C)C)c(OC)c(C(C)(C)C)c2)CCCCC1", 82.6],
  ["CC(C)(C)c1cc(C(=O)NC2(C(=O)NCc3ccc(S(C)(=O)=O)cc3)CCOCC2)cc(C(C)(C)C)c1O", 80.7],
  ["CC(C)(C)c1cc(C(=O)NC2(C(=O)NCc3cccc(C(F)(F)F)c3)Cc3ccccc3C2)cc(C(C)(C)C)c1", 56.3],
  ["Cc1cc(CNC(=O)C2(NC(=O)c3cc(C(C)(C)C)c(O)c(C(C)(C)C)c3)CCCCC2)no1", 98.6],
  ["COc1ccc(CNC(=O)C2(NC(=O)Cc3cc(C(C)(C)C)c(OC)c(C(C)(C)C)c3)CCCCC2)cc1", 40.7],
  ["COc1c(C(C)(C)C)cc(C(=O)NC2(C(=O)N3CCOCC3)CCCCC2)cc1C(C)(C)C", 85.8],
  ["COc1c(C(C)(C)C)cc(CNC2(C(=O)NCc3ccccc3)CCCCC2)cc1C(C)(C)C", 97.8]
]}

(P) CC(C)(C#N)c1cc(C(=O)NC2(C(=O)NCc3ccccc3)CCCCC2)cc(C(C)(C)C#N)c1
(Q) CC(C)(C)OC(=O)N1CCC(NC(=O)c2cc(C(C)(C)C)nc(C(C)(C)C)c2)(C(=O)O)CC1
Compare inhibition at 10 µM: is it lower for P or for Q ? Select an item and report its label.
Q
(Q: 37.6%, P: 76%)

* * *

measurement_target: Human Cav2.2 channels (Homo sapiens)
Construct: expressed in transfected cells
test_protocol: Fluorescent assay for Cav2.2 channels using potassium depolarization to initiate channel opening
Type: cell-based
condition_notes: 30 μM compound; read-out: Cav 2.2 Activity % Inh at 30 μM
property: inhibition at 30 µM (%)

{"columns": ["compound", "inhibition at 30 µM (%)"],
 "data": [
  ["COc1c(C(C)(C)C)cc(CC(=O)NC2(C(=O)NCc3cccc(C(F)(F)F)c3)CCCCC2)cc1C(C)(C)C [Compound 15]", 65.9],
  ["CC(C)(C)c1cc(C(=O)NC2(C(=O)NCc3cccc(S(C)(=O)=O)c3)CC2)cc(C(C)(C)C)c1O [Compound 16]", 93],
  ["COc1ccc(CNC(=O)C2(NC(=O)c3cc(C(C)(C)C)c(OC)c(C(C)(C)C)c3)CCCCC2)cc1 [Compound 31]", 105],
  ["COc1ccc(CNC(=O)C2(NC(=O)c3cc(C(C)(C)C)c(O)c(C(C)(C)C)c3)CCCCC2)cc1 [Compound 67]", 98.6],
  ["CC(C)(C)c1cc(C(=O)NC2(C(=O)NCc3ccccn3)CCCCC2)cc(C(C)(C)C)c1 [Compound 47]", 95.3],
  ["Cc1cc(CNC(=O)C2(NC(=O)c3cc(C(C)(C)C)c(O)c(C(C)(C)C)c3)CCCCC2)no1 [Compound 12]", 101],
  ["CC(C)(C)NC(=O)C(C)(C)c1cc(C(=O)NC2(C(=O)NCc3cccc(C(F)(F)F)c3)CCCCC2)cc(C(C)(C)C(=O)NC(C)(C)C)c1 [Compound 76]", 87.8],
  ["COc1c(C(C)(C)C)cc(C(=O)NC2(C(=O)NCc3cccc(C(F)(F)F)c3)CCCCC2)cc1C(C)(C)C [Compound 33]", 90.5],
  ["CC(C)(C)c1cc(C(=O)NC2(C(=O)NCc3nccs3)CC2)cc(C(C)(C)C)n1 [Compound 10]", 101],
  ["Cc1cnc(CNC(=O)C2(NC(=O)c3cc(C(C)(C)C)c(O)c(C(C)(C)C)c3)CCCCC2)cn1 [Compound 5]", 96.4],
  ["CC(C)(C)c1cc(C(=O)NC2(C(=O)NCc3nccs3)CCCCC2)cc(C(C)(C)C)c1O [Compound 13]", 99.8],
  ["CC(C)(C)c1cc(C(=O)NC2(C(=O)NCc3cccc(C(F)(F)F)c3)Cc3ccccc3C2)cc(C(C)(C)C)c1 [Compound 53]", 74.3],
  ["CC(C)(C)c1cc(C(=O)NC2(C(=O)NCc3cccc(C(F)(F)F)c3)CCCCC2)cc(C(C)(C)C)c1 [Compound 62]", 88.1],
  ["COc1ccc(CNC(=O)C2(NC(=O)c3cc(C(C)(C)C)c(OC)c(C(C)(C)C)c3)CCOCC2)cc1 [Compound 114]", 92.4],
  ["CC(C)(C)NC(=O)C(C)(C)c1ccc(C(=O)NC2(C(=O)NCc3cccc(C(F)(F)F)c3)CCCCC2)cc1 [Compound 126]", 104],
  ["CN1CCC(NC(=O)c2cc(C(C)(C)C)nc(C(C)(C)C)c2)(C(=O)NCc2ccccc2)CC1 [Compound 97]", 90.6],
  ["Cc1cc(CNC(=O)C2(NC(=O)c3cc(C(C)(C)C)c(O)c(C(C)(C)C)c3)CC2)nn1C [Compound 2]", 104],
  ["COc1c(C(C)(C)C)cc(CNC2(C(=O)NCc3cccc(C(F)(F)F)c3)CCCCC2)cc1C(C)(C)C [Compound 71]", 81.1]
]}

This collection of values is drawn from patent US20090270394A1.
